# TARGET_SYSTEM: T1, Dimeric monkey CD48-mFc (monkey)
# T1 construct: Soluble monkey CD48 with a C-terminal Fc fusion [mFc]; the whole entry is the construct
# T1 chain: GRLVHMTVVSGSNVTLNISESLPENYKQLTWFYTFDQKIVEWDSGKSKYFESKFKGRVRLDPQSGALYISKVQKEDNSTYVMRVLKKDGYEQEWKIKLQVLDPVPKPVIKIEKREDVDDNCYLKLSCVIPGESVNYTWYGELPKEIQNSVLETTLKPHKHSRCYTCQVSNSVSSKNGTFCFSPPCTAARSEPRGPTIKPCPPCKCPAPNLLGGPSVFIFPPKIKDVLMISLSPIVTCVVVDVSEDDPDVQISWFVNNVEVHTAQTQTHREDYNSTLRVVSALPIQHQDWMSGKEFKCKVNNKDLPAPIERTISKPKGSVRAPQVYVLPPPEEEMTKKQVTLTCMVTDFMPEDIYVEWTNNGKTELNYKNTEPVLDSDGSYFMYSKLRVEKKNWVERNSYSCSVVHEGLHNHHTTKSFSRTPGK
# PROTOCOL_NOTES: SPR (Biacore), antibody captured by anti-Fc, CD48 in solution, 37 C
MEASURE: kon (M⁻¹ s⁻¹)
Field: numeric (M⁻¹ s⁻¹). Do not append units.

{"columns": ["BINDER", "MEASURE", "DISPLAY_UNIT", "RECORDED_NUMBER"],
 "data": [
  ["H4H1779P (antibody, human IgG4, V domains shown, Human IgG4 Fc (H4H)) VH: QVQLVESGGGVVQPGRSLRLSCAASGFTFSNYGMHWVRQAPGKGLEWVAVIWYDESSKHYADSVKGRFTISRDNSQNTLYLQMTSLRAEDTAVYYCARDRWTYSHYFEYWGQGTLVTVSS VL: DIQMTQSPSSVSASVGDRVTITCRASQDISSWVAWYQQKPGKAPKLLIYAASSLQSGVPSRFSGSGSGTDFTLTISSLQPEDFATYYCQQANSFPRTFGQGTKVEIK", "kon", "M⁻¹ s⁻¹", 721000]
]}

Inquiry: # lookup: kon of H4H1772P (antibody, human IgG4, V domains shown, Human IgG4 Fc (H4H)) VH: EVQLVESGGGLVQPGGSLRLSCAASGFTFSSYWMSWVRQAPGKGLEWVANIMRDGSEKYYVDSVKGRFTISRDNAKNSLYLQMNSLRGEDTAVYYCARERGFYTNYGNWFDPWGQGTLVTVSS VL: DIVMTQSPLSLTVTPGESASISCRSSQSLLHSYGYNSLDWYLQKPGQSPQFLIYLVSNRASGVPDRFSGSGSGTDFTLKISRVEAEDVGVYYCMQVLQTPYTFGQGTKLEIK
Reply text: 772000

Inquiry: May I ask what kon has been recorded for H4H1770P (antibody, human IgG4, V domains shown, Human IgG4 Fc (H4H)) VH: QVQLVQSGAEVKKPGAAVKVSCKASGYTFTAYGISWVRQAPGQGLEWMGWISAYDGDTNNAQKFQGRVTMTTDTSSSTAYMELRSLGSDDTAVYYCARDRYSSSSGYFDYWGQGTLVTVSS VL: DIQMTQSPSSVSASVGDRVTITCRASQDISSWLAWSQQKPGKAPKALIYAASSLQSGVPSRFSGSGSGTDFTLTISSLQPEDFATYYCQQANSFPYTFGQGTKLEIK ?
Reply text: 1.53e+06

Inquiry: If you can, please state the reported kon value of H4H1781P (antibody, human IgG4, V domains shown, Human IgG4 Fc (H4H)) VH: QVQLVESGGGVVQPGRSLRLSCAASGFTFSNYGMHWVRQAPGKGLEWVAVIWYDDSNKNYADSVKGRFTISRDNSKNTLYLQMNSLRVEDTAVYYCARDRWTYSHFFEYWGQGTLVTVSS VL: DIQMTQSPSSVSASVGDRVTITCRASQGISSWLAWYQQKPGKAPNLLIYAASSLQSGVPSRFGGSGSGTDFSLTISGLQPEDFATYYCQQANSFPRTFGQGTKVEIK .
Reply text: 875000

Inquiry: For the binder H4H1775P (antibody, human IgG4, V domains shown, Human IgG4 Fc (H4H)) VH: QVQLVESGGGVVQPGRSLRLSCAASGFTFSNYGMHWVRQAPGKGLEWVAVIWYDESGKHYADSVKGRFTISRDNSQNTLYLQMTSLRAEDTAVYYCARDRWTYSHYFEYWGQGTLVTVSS VL: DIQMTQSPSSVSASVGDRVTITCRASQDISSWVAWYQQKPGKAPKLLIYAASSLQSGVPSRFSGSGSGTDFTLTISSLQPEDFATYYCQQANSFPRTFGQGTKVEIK , what kon is on record?
Reply text: 669000

Inquiry: Item H4H1774P (antibody, human IgG4, V domains shown, Human IgG4 Fc (H4H)) VH: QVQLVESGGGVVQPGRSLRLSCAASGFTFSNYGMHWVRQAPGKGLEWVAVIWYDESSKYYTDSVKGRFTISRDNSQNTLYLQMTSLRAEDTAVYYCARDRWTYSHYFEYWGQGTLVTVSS VL: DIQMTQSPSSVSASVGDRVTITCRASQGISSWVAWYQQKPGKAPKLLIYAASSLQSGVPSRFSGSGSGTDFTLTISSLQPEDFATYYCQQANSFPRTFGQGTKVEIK has what recorded kon?
Reply text: 508000

Inquiry: I'd like to know its kon. The binder in question is H4H1778P (antibody, human IgG4, V domains shown, Human IgG4 Fc (H4H)) VH: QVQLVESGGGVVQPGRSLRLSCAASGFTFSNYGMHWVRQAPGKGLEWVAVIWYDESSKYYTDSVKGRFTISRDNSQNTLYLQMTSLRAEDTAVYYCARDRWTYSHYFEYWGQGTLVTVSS VL: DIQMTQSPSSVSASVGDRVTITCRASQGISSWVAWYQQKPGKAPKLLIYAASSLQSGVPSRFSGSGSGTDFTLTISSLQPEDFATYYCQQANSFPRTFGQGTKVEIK
Reply text: 525000

Inquiry: # kon lookup, item H4H1713N (antibody, V domains shown, Human IgG4 Fc (H4H)) VH: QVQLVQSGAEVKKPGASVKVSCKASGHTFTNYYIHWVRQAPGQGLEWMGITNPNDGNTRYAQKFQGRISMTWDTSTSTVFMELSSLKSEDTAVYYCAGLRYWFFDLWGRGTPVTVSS VL: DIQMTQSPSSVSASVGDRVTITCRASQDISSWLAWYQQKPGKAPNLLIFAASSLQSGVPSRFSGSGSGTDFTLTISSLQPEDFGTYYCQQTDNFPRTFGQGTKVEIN
Reply text: 1.72e+06

This collection of values is drawn from patent US20130230533A1.
